STUDY SYSTEM: T1, HLA-A*02:01 (human)
T1 construct: captured on streptavidin plates; also called peptide-receptive MHC molecules
ASSAY NOTES: UV peptide exchange ELISA (anti-b2m); yield grade: + >10%, ++ >20%, +++ >50, ++++ >75%
MEASUREMENT LABEL: peptide exchange yield

• GLDSGFHSV = > 75%
• ALPPPPASI = 50 to 75%
• ALADLQEAV = > 75%
• TLIELLLPKL = > 75%
